test system: EGFR; details: concentration: 1 μM, replicates: in singlicate; n = 1;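 further: KINOMEscan kinase panel screen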
testReadout: %Inh (%)
Give just the number in %; leave the unit off.

Consider the reported %Inh for these compounds:
Cc1ccc(NC(=O)c2ccc(Cl)c(Cl)c2)cc1-c1ccc(C(=O)Nc2ccncc2)cc1 [GSK1398460]: 32
CN(C)c1ncnc2nc[nH]c12 [SKF-31736]: 0
Cn1cc(-c2cnc(N)c3c(-c4ccc5c(c4)CCN5C(=O)Cc4ccccc4)csc23)cn1 [GSK2593074]: 3
Cl.O=C(Nc1ccc(Oc2ccc3[nH]c(NC(=O)c4ccco4)nc3c2)cc1)Nc1cc(C(F)(F)F)ccc1F [GW683134]: 44
COc1cc(Nc2nccc(N3CCC(NC(=O)Nc4ccc5c(c4)OCO5)C3)n2)cc(OC)c1OC (centres unmarked) [GSK1379766]: 0

Request body: readout %Inh, system EGFR, query Cl.N#CCc1ccc(Nc2nccc(Nc3ccc(Oc4ccccc4)cc3)n2)cc1 [GW639905] . Return the value.
33

Request body: readout %Inh, system EGFR, query COc1ccc(NC(=O)c2ccoc2)cc1-c1ccc(C(=O)NCC2CC2)cc1 [GW810437] . Return the value.
0

Request body: readout %Inh, system EGFR, query COc1cccc(CC(=O)N2CCc3cc(-c4cn(C)c5ncnc(N)c45)ccc32)c1 [GSK2608899] . Return the value.
23

###

The reader will find reported %Inh values listed item by item below.
tested on: ERBB3; conditions: concentration: 1 μM, replicates: in singlicate; n = 1
Give just the number in %; leave the unit off.

Consider the reported %Inh for these compounds:
Cc1ccc(O)cc1Nc1ccnc2ccc(C(C)(C)C)cc12: 15
Cc1ccc(NC(=O)c2ccc(Cl)c(Cl)c2)cc1-c1ccc(C(=O)Nc2ccncc2)cc1: 0
Cc1ccc(NC(=O)c2cccc(N3CCCCC3)c2)cc1-c1ccc(C(=O)NCC2CC2)cc1: 0
COc1cccc2c(-c3ccncc3)c(-c3ccc(F)cc3)nn12: 21
COC(=O)Nc1nc2ccc(Oc3ccc(NC(=O)Nc4cc(C(F)(F)F)ccc4F)cc3)cc2[nH]1.Cl: 0
CS(=O)(=O)c1cccc(CNc2nc(Nc3ccc4c(c3)CCC(=O)N4)ncc2C(F)(F)F)c1: 0

Turning to the following compound.
If you can, please state the reported %Inh value of Cc1ccc(O)cc1Nc1ccnc2cc(-c3ccc(CN4CCCCC4)o3)ccc12 .
7

###

The reader will find reported %Inh values listed item by item below.
tested on: JAK3(JH1domain-catalytic); settings: concentration: 1 μM, replicates: in singlicate; n = 1
Quote the value and follow it with the unit of measurement.

Cc1cccc(Nc2nc(N[C@H]3CCCC[C@H]3N)ncc2C(N)=O)c1.Cl: 80%
Nc1ncnc2scc(-c3ccc(NC(=O)Cc4cc(F)ccc4F)cc3)c12.O=C(O)C(F)(F)F: 0%
Cn1cc(-c2ccc3c(c2)CCN3C(=O)Cc2cc(F)cc(C(F)(F)F)c2)c2c(N)ncnc21: 0%
Cl.Cl.NC(CNC(=O)c1cc(Br)c(-c2ccnc3[nH]ccc23)s1)c1ccccc1 (stereo not shown): 96.8%

If you can, please state the reported %Inh value of COc1ccc(C)c(Nc2ccnc(Nc3ccc(-c4cnc[nH]4)cc3)n2)c1.Cl .
0%

If you can, please state the reported %Inh value of CCOc1nccc(-c2c(-c3ccc(F)cc3)ncn2C2CCNCC2)n1 .
26%

If you can, please state the reported %Inh value of CNc1nccc(-c2ccc3c(N)n[nH]c3c2)n1 .
15%

###

system: JNK2; construct: gene MAPK9; conditions: concentration: 1 μM, replicates: in singlicate; n = 1
testReadout: %Inh (%)
Give just the number in %; leave the unit off.

Cc1ccc(O)cc1Nc1ccnc2cc(-c3ccc(CN4CCCCC4)o3)ccc12: 0

If you can, please state the reported %Inh value of COc1cccc(C2=C(Nc3cccc(O)c3)C(=O)NC2=O)c1 .
50

###

The reader will find reported %Inh values listed item by item below.
tested on: CDC2L1; construct: gene CDK11B; settings: concentration: 1 μM, replicates: in singlicate; n = 1
Give just the number in %; leave the unit off.

Consider the reported %Inh for these compounds:
Cc1ccc(NC(=O)c2cccc(N3CCCCC3)c2)cc1-c1ccc(C(=O)NCC2CC2)cc1: 22
N#CC1(c2cccc(C(=O)Nc3cccc(Oc4ccc5nc(NC(=O)C6CC6)sc5n4)c3)c2)CC1: 0
CCNc1nccc(-c2c(-c3ccc(F)cc3)ncn2C2CCN(C)CC2)n1: 7
COc1cccc(NC(=O)NCCNc2ccnc(Nc3ccc(F)cc3)n2)c1: 0

Request body: readout %Inh, system CDC2L1, query Cn1cc(-c2ccc3c(c2)CCN3C(=O)Cc2cc(F)cc(C(F)(F)F)c2)c2c(N)ncnc21 . Return the value.
5

Request body: readout %Inh, system CDC2L1, query Fc1cc(Cl)ccc1Nc1ccnc2cc(-c3ccc(CN4CCOCC4)o3)ccc12 . Return the value.
0

Request body: readout %Inh, system CDC2L1, query Cc1ccc(NC(=O)c2ccc(Cl)c(Cl)c2)cc1-c1ccc(C(=O)Nc2ccncc2)cc1 . Return the value.
2

Request body: readout %Inh, system CDC2L1, query CN1CCN(Cc2ccc(NC(=O)Nc3ccc(N(C)c4ccnc(Nc5ccc(CS(C)(=O)=O)cc5)n4)cc3)cc2)CC1.Cl . Return the value.
33

Request body: readout %Inh, system CDC2L1, query CN(c1ccc(NC(=O)Nc2cccc(Cl)c2)cc1)c1ccnc(N)n1.Cl . Return the value.
0

###

test system: FLT3-autoinhibited; details: concentration: 1 μM, replicates: in singlicate; n = 1
The reader will find reported %Inh values listed item by item below.
Quote the value and follow it with the unit of measurement.

Consider the reported %Inh for these compounds:
COc1cccc(CC(=O)N2CCc3cc(-c4cn(C)c5ncnc(N)c45)ccc32)c1: 0%
Cc1ccc(Nc2ccnc(Nc3ccc(C)c(F)c3)n2)cc1O.Cl: 0%
CN(C)CCNS(=O)(=O)c1ccc(-c2ccnc3[nH]ccc23)cc1: 11%
CS(=O)(=O)c1cccc(CNc2nc(Nc3ccc4c(c3)CCC(=O)N4)ncc2C(F)(F)F)c1: 54%
CC(=O)Nc1cn2nc(Oc3cccc(NC(=O)c4cccc(C(F)(F)F)c4)c3)ccc2n1: 0%

Turning to the following compound.
If you can, please state the reported %Inh value of CNc1nccc(-c2ccc3c(N)n[nH]c3c2)n1 .
14%

###

tested on: DCAMKL3; construct: gene DCLK3; conditions: concentration: 1 μM, replicates: in singlicate; n = 1
Label class 1 when %Inh is strictly below 1%; otherwise label class 0.

COc1ccc(C)c(Nc2ccnc(Nc3ccc(-c4cnc[nH]4)cc3)n2)c1.Cl [GW784041]: class 0
Cc1ccc(-c2ccc3occ(-c4ccc(S(C)=O)cc4)c3c2)nn1 (stereo not shown): class 0
Nc1cccc(-c2ccc3c(N)n[nH]c3c2)c1 [GSK2193613]: class 1
CNc1nccc(-c2ccc3c(N)n[nH]c3c2)n1 [GSK2206003]: class 0

Hi there! Is %Inh for Cc1ccc(NC(=O)c2cccc(N3CCCCC3)c2)cc1-c1ccc(C(=O)NCC2CC2)cc1 [GSK1917008] below 1%, do you know?
class 1

Hi there! Is %Inh for O=C(Nc1n[nH]c2nc(-c3ccccc3O)ccc12)C1CC1 [SB-711880] below 1%, do you know?
class 1

Hi there! Is %Inh for O=C(O)C(F)(F)F.O=c1[nH]ccc2nc(N[C@@H]3CCNC3)nc(Nc3cc(Cl)cc(Cl)c3)c12 [GSK2188764] below 1%, do you know?
class 0

###

The reader will find reported %Inh values listed item by item below.
system: WNK4; details: concentration: 1 μM, replicates: in singlicate; n = 1
Give just the number in %; leave the unit off.

Consider the reported %Inh for these compounds:
CN1CCN(Cc2ccc(NC(=O)Nc3ccc(N(C)c4ccnc(Nc5ccc(CS(C)(=O)=O)cc5)n4)cc3)cc2)CC1.Cl [GW827654]: 0
Fc1cc(Cl)ccc1Nc1ccnc2cc(-c3ccc(CN4CCOCC4)o3)ccc12 [GW560109]: 8

Request body: readout %Inh, system WNK4, query Cc1ccccc1CC(=O)N1CCc2cc(-c3cn(C)c4ncnc(N)c34)ccc21 [GSK2603346] . Return the value.
8

###

tested on: MAP4K5; conditions: concentration: 1 μM, replicates: in singlicate; n = 1
Rule: %Inh of 5% or more gives fulfilled; anything lower gives not fulfilled.

Previously resolved entries follow.
Fc1cc(Cl)ccc1Nc1ccnc2cc(-c3ccc(CN4CCOCC4)o3)ccc12: fulfilled
CCn1cnc2c(NCc3ccccc3)ncnc21: not fulfilled
N#CC1(c2cccc(C(=O)Nc3cccc(Oc4ccc5nc(NC(=O)C6CC6)sc5n4)c3)c2)CC1: fulfilled
Cl.Cl.NC(CNC(=O)c1cc(Br)c(-c2ccnc3[nH]ccc23)s1)c1ccccc1 (stereo not shown): not fulfilled
O=C(Nc1n[nH]c2nc(-c3cccc(O)c3)ccc12)C1CC1: not fulfilled

Does the compound Fc1cc(Cl)ccc1Nc1ccnc2cc(-c3ccc(CN4CCSCC4)o3)ccc12 have recorded %Inh that is 5% or more?
fulfilled

Does the compound Cc1ccc(O)cc1Nc1ccnc2ccc(C(C)(C)C)cc12 have recorded %Inh that is 5% or more?
not fulfilled

Does the compound CN(c1ccc2c(c1)nc(NCc1ccccc1)n2C)c1ccnc(Nc2ccc(CS(C)(=O)=O)cc2)n1.Cl have recorded %Inh that is 5% or more?
not fulfilled

Does the compound O=C1NC(=O)C(c2ccccc2Cl)=C1Nc1cccc(Cl)c1 have recorded %Inh that is 5% or more?
not fulfilled
